# Test system: GPR40 (Homo sapiens, UniProt O14842)
# Construct: expressed in transfected cells; host or cells: HEK293 cells stably expressing GPR40 (Hygromycin selection)
# Sequence (O14842 whole entry): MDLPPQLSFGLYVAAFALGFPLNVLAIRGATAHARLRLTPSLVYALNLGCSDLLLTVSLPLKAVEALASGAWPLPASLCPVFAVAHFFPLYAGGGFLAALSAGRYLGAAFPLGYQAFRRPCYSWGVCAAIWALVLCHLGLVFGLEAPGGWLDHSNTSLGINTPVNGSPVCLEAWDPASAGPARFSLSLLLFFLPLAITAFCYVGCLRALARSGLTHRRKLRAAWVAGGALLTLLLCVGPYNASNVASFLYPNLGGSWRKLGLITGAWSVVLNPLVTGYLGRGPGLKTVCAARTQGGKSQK
# Assay comment: IP1 accumulation assay in HEK293 cells stably expressing GPR40
# Type: cell-based
# Condition context: IP1 accumulation, HEK293 cells stably expressing GPR40, 2 hours at 37° C., % effect relative to AMG-1638; table of Biological Example 1
pEC50: −log10 of the molar value.
Assay metric: pEC50

Consider the worked cases shown below.
COc1ccc(F)c(-c2ccc(COc3cccc([C@@H](CC(=O)O)C4CC4)c3)cc2C(OC)C(C)(C)Cn2cc(CCCCCCCCCCCCCCCCCC(=O)NCC[N+](C)(CCC(=O)NCCN)CCC(=O)NCCN)nn2)c1 (stereo partly shown)	7.23
COc1ccc(F)c(-c2ccc(COc3cccc([C@@H](CC(=O)O)C4CC4)c3)cc2CC(C)(C)Cn2cc(CCCCCCCCCCCC(=O)NCCC[N+](C)(CC(=O)[O-])CC(=O)O)nn2)c1 (stereo partly shown)	6.00
COc1ccc(C(=O)N(CC(C)(C)CCCCCCn2cc(CCCCCCC(=O)NCC[N+](C)(CCC(=O)NCCN)CCC(=O)NCCN)nn2)c2cccc(C)n2)c(N2CCC(COc3cc([C@@H](CC(=O)O)C4CC4)ccn3)CC2)c1	8.34
COc1ccc(F)c(-c2ccc(COc3cccc([C@@H](CC(=O)O)C4CC4)c3)cc2CC(C)(C)Cc2cn(CCCCCCCCCCCCCCCCCC(=O)NCC[N+](C)(CCC(=O)NCCN)CCC(=O)NCCN)nn2)c1	8.69
COc1ccc(F)c(-c2ccc(COc3cccc([C@@H](CC(=O)O)C4CC4)c3)cc2C(OCCCCCn2cc(CCCCCCCCCCCCC(=O)NCC[N+](C)(CCC(=O)NCCN)CCC(=O)NCCN)nn2)C(C)(C)C)c1 (stereo partly shown)	8.72

(a) COc1ccc(F)c(-c2ccc(COc3cccc([C@@H](CC(=O)O)C4CC4)c3)cc2CC(C)(C)Cn2cc(CCCCCCCCCCCCCCCC(=O)NCCCN(CC(=O)NCCN)CC(=O)NCCN)nn2)c1
(b) C[C@H](C(=O)O)[C@H](c1ccc2c(c1)O[C@@H](C1CCN(Cc3cc(-n4cc(CCCCCCCCCCCCCC(=O)NCCN(CCC(=O)NCCN)CCC(=O)NCCN)nn4)ccc3OC(F)(F)F)CC1)CC2)C1CC1
(c) COc1ccc(F)c(-c2ccc(COc3cccc([C@@H](CC(=O)O)C4CC4)c3)cc2OC(C)(C)Cn2cc(CCCCCCCCC(=O)NCCN(CCC(=O)NCCN)CCC(=O)NCCN)nn2)c1
(d) COc1ccc(F)c(-c2ccc(COc3cccc([C@@H](CC(=O)O)C4CC4)c3)cc2CC(C)(C)Cc2cn(CCCCCCCCCCCCCC(=O)NCCN(CCC(=O)NCCN)CCC(=O)NCCN)nn2)c1
Q) Put the items in order so that reported pEC50 rises from first to last. Please express your ranking as an ordered list of the labels.
A) c, d, a, b
(c: 5.91, d: 7.31, a: 8.18, b: 8.85)
